Biological target: T1, human CD3e/g antigen (ACRO, catalog number CDG-H52W5) (human, UniProt P07766 23-126; P09693 23-116)
T1 construct: Bought reagent used as the Biacore analyte; also called hCD3e/g
Experiment: SPR (Biacore 8K), antibody captured via anti-human Fc
Measurement Label: koff (s⁻¹)
State the answer as a number, implicitly in s⁻¹.

These recorded examples may help you get a feel for the data.
>  <Binder>
hAb008-18 (antibody, V domains shown, Humanized; constant regions not specified) VH: QVQLVQSGAEVKKPGASVKVSCKASGYTFTDYTVNWVRQAPGQRLEWMGYINPFNSYTKYNQKFKDRVTITRDTSASTAYMELSSLRSEDTAVYYCARSVSTYWGQGTTVTVSS VL: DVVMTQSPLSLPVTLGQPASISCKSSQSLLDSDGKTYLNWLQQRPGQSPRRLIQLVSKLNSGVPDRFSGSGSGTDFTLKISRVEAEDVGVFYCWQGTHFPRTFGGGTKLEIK

>  <Assay Value>
0.00691

$$$$
>  <Binder>
hAb001-24 (antibody, V domains shown, Humanized; constant regions not specified) VH: QVQLVQSGAEVKKPGASVKVSCKASGYSFTNYYMHWVRQAPGQRLEWIGWTYPGNNNIKYNEKFKGRVTITADTSASTAYMELSSLRSEDTAVYYCARDGYGYYFFDYWGQGTLVTVSS VL: DIVMTQSPDSLAVSLGERATMSCKSSQSLLNNRTRKNYLAWYQQKPGQPPKLLIYWASTRESGVPDRFTGSGSGTDFTLTISSLQAEDVAVYYCKQSYTLRTFGGGTKLEIK

>  <Assay Value>
0.00655

$$$$
>  <Binder>
hAb007-31 (antibody, V domains shown, Humanized; constant regions not specified) VH: QVQLVQSGAEVKKPGASVKVSCKASGSTFTDNYIHWVKQAPGQRLEWIGWIYPGSVNIKYNEKFKDRATITADTSATTAYMELSSLRSEDTAVYYCARDISRYYFDYWGQGTTVTVSS VL: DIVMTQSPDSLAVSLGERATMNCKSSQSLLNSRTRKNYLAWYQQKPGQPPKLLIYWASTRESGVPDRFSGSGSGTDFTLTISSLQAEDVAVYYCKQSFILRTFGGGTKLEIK

>  <Assay Value>
0.00225

$$$$
>  <Binder>
hAb001-30 (antibody, V domains shown, Humanized; constant regions not specified) VH: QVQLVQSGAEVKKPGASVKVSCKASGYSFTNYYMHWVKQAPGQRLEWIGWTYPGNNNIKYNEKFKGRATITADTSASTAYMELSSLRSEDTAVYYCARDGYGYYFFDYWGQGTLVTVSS VL: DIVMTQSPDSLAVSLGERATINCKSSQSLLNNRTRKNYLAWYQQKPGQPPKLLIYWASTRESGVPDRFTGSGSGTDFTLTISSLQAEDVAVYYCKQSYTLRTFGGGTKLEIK

>  <Assay Value>
0.00835

$$$$

# evaluate next
*Q* Answer with the recorded koff for the binder listed here: hAb008-23 (antibody, V domains shown, Humanized; constant regions not specified) VH: QVQLVQSGAEVKKPGASVKVSCKASGYTFTDYTVNWVRQAPGQRLEWIGYINPFNSYTKYNQKFKDRVTITADTSASTAYMELSSLRSEDTAVYYCANSVSTYWGQGTTVTVSS VL: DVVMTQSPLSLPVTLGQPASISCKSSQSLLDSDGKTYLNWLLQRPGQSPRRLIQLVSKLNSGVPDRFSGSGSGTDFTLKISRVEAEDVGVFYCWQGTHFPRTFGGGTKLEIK
*A* 0.00487
